The measured values listed here are drawn from PubChem BioAssay (NCI).

System: MALME-3M melanoma
assay-protocol: NCI tumour cell line growth inhibition, 48 h
Here, each record is paired with measured TGI data.
measured-metric: TGI

>  <compound>
N#CCC(=O)Nc1cccc(C(F)(F)F)c1

>  <tested-target>
MALME-3M melanoma

>  <result>
> 100 µM

$$$$
>  <compound>
CCCCCc1cc(OC(=O)c2c(O)cc(OC)cc2CCCCC)cc(O)c1C(=O)O

>  <tested-target>
MALME-3M melanoma

>  <result>
26.1 µM

$$$$
>  <compound>
CN(C)c1cccc2c(S(=O)(=O)N[C@H]3CC[C@H]4[C@@H]5CCc6cc(O)ccc6[C@H]5CC[C@]34C)cccc12

>  <tested-target>
MALME-3M melanoma

>  <result>
5.61 µM

$$$$
>  <compound>
CC(C)(C)OC(=O)n1cc(C2CNC(=O)C23CCC(=O)N3Cc2ccccc2)c2ccccc21 (centres undefined)

>  <tested-target>
MALME-3M melanoma

>  <result>
42.8 µM

$$$$

---

Tested on: OVCAR-3 ovarian
assay-protocol: NCI tumour cell line growth inhibition, 48 h
measured-metric: log10 TGI (log10 of the value in µM)

>  <molecule>
Cc1cc(C)nc(NS(=O)(=O)c2ccc(Nc3c4ccccc4nc4c(C(=O)Nc5ccc(S(=O)(=O)N=C(N)N)cc5)ccc(Cl)c34)cc2)n1

>  <quantitative-readout>
1.57

$$$$
>  <molecule>
Cc1ccc([N+](=O)[O-])cc1S(=O)(=O)Nc1ccc(C2=NN(c3ccc([N+](=O)[O-])cc3[N+](=O)[O-])C(c3ccccc3)C2)cc1 (configuration not stated)

>  <quantitative-readout>
1.45

$$$$
>  <molecule>
COc1cc(-c2nc3cc(F)ccc3s2)ccc1O

>  <quantitative-readout>
1.90

$$$$
>  <molecule>
O=C(NNc1nc(Cl)nc(N2CCN(C(c3ccccc3)c3ccccc3)CC2)n1)c1ccccc1

>  <quantitative-readout>
0.50

$$$$
>  <molecule>
COc1ccc2c(c1)/C(=C\c1c(C)nc3sc(C)cn13)C(=O)N2C

>  <quantitative-readout>
0.60

$$$$
>  <molecule>
CCOC(=O)C(=O)Nc1nc2c(s1)C(=O)c1ccccc1C2=O

>  <quantitative-readout>
1.27

$$$$
>  <molecule>
Cc1ccc(F)cc1NC(=O)O/N=C(\Cl)C(C)C

>  <quantitative-readout>
1.14

$$$$
>  <molecule>
CC(=O)Nc1ccc2c(c1)c(C1=C(c3cn(C)c4ccccc34)C(=O)NC1=O)cn2C

>  <quantitative-readout>
0.33

$$$$
>  <molecule>
CCN(CC)Cc1nc2sc3c(c2c(=O)n1-c1ccccc1)CCCC3

>  <quantitative-readout>
1.54

$$$$
>  <molecule>
O=[N+]([O-])c1ccc(C(c2c[nH]c3ccccc23)c2c[nH]c3ccccc23)cc1

>  <quantitative-readout>
0.92

$$$$
>  <molecule>
CCCC/C=C1\CCC(CN2CCCCC2)C1=O (configuration not stated)

>  <quantitative-readout>
1.66

$$$$
>  <molecule>
CCOC(=O)c1c2c(n3ccc(NC(=O)CCN4CCCC4)cc13)C(=O)c1ncccc1C2=O

>  <quantitative-readout>
0.49

$$$$
>  <molecule>
CC(C)/C(Cl)=N/OC(=O)Nc1ccc(F)c(Cl)c1

>  <quantitative-readout>
0.96

$$$$

---

Here, each record is paired with measured TGI data.
Test system: COLO 205 colon
assay-protocol: NCI tumour cell line growth inhibition, 48 h

>  <compound>
COc1ccc(N(C(=O)Nc2ccc(Cl)c(Cl)c2)c2ccccc2)cc1

>  <TGI>
> 10 µM

$$$$
>  <compound>
CCN1CC(C)Cn2c(=O)[nH]c3cc(Br)cc1c32 (configuration not stated)

>  <TGI>
> 100 µM

$$$$
>  <compound>
COc1cc(O)c([C@@H]2C[C@H](CCc3ccc(O)cc3)O[C@H](c3ccc(O)cc3)C2)c(O)c1C(=O)/C=C/c1ccc(O)cc1

>  <TGI>
5.4 µM

$$$$
>  <compound>
c1ccc2c(-c3cnc(-c4c[nH]c5ccccc45)cn3)c[nH]c2c1

>  <TGI>
> 100 µM

$$$$
>  <compound>
N#Cc1c(-c2nc3ccccc3s2)c(=O)oc2cc(O)ccc12

>  <TGI>
30.8 µM

$$$$
>  <compound>
CCC(CCCN)Nc1cc(OC)cc2cccnc12 (configuration not stated)

>  <TGI>
> 100 µM

$$$$
>  <compound>
COc1cc(CCc2ccc(OCCN(C)C)cc2)cc(OC)c1OC

>  <TGI>
38.9 µM

$$$$
>  <compound>
O=C(CCCn1cnc([N+](=O)[O-])n1)NCCn1ccnc1[N+](=O)[O-]

>  <TGI>
> 100 µM

$$$$
>  <compound>
O=C1C(Br)=CC2([N+](=O)[O-])CCNc3c(O)c4c5c(c3C2=C1Br)=NCCC=5C=N4 (configuration not stated)

>  <TGI>
0.133 µM

$$$$
>  <compound>
CC(C)(CO)CNc1cc(=O)[nH]c(N)n1

>  <TGI>
> 100 µM

$$$$
>  <compound>
COc1ccc2c3c1OC1CC(O)C=CC31CCN(C)C2 (configuration not stated)

>  <TGI>
> 150 µM

$$$$
>  <compound>
N#CC1=C2Sc3ccccc3N2[C@H](c2ccccc2)[C@H]2COC(=O)[C@@H]12

>  <TGI>
> 100 µM

$$$$
>  <compound>
Nc1nc(SCc2ccccn2)c2ncn(C3CCCC3)c2n1

>  <TGI>
> 100 µM

$$$$
>  <compound>
Cc1c2c(nn1-c1ccc(S(=O)(=O)NC(=S)Nc3ccccc3)cc1)-c1ccccc1CC2

>  <TGI>
> 50 µM

$$$$
>  <compound>
c1ccc(CNc2c3c(nc4ccccc24)CCC3)cc1

>  <TGI>
25 µM

$$$$
>  <compound>
CNC(=O)c1cc(OC2CCC(NC(=O)Nc3ccc(Cl)c(C(F)(F)F)c3)CC2)ccn1 (configuration not stated)

>  <TGI>
22.3 µM

$$$$
>  <compound>
CCOC(=O)c1ccc(NC(=O)N2CC(C)OC(C)C2)cc1 (configuration not stated)

>  <TGI>
> 100 µM

$$$$
>  <compound>
Cc1ccc(C(=O)N(C2CCCCC2)C2CCCCC2)cc1N=NN(C)C

>  <TGI>
33.6 µM

$$$$
>  <compound>
N=C(N)SCCON1C(=O)c2ccccc2C1=O

>  <TGI>
> 100 µM

$$$$
>  <compound>
CCC(C)[C@H](NC(=O)N[C@H](C)c1ccccc1)C(=O)OC (some centres not stated)

>  <TGI>
> 100 µM

$$$$
>  <compound>
CS(=O)(=O)CCNCc1nc(-c2ccc3ncnc(Nc4ccc(F)c(Cl)c4)c3c2)cs1

>  <TGI>
> 25 µM

$$$$
>  <compound>
CCOC(=O)/C(=C\NCC(O)c1ccccc1)c1nc2ccccc2[nH]1 (configuration not stated)

>  <TGI>
49.8 µM

$$$$

---

System: HT29 colon
assay-protocol: NCI tumour cell line growth inhibition, 48 h; in the data active = GI50 below about 0.43 µM; inactive = the rest
Outcome codes: True (active), False (inactive)

>  <chemical-smiles>
COc1ccc(-c2nc3sc(C)cn3c2/C=C/C(=O)c2cc(OC)c(OC)c(OC)c2)cc1

>  <category-label>
False

$$$$
>  <chemical-smiles>
CN1CC[C@@H](c2c(O)cc(O)c3c(=O)cc(-c4ccccc4Cl)oc23)[C@@H](O)C1

>  <category-label>
True

$$$$
>  <chemical-smiles>
COc1ccc2c(c1)/C(=C\c1c(C)nc3sc(C)cn13)C(=O)N2C

>  <category-label>
False

$$$$
>  <chemical-smiles>
Cc1ccc(-[n+]2c3cc(N)c(C)cc3nc3cc(C)c(Nc4ccccc4)cc32)cc1

>  <category-label>
True

$$$$
>  <chemical-smiles>
CC(=O)O[C@H]1CC[C@@]2(C)C(=CC[C@@H]3[C@@H]2CC[C@]2(C)C(c4cccnc4)=CC[C@@H]32)C1

>  <category-label>
False

$$$$
>  <chemical-smiles>
COc1cc(-c2nn(-c3ccc(NC(=O)c4ccc(Cl)c(Cl)c4)cc3)cc2-c2ccncc2)ccc1Cl

>  <category-label>
False

$$$$
>  <chemical-smiles>
CS(=O)(=O)CCNCc1nc(-c2ccc3ncnc(Nc4ccc(F)c(Cl)c4)c3c2)cs1

>  <category-label>
False

$$$$
>  <chemical-smiles>
COc1ccc(Cl)cc1Nc1nc(C(F)(F)F)ccc1C(=O)N/N=C/c1c(Cl)cccc1Cl

>  <category-label>
False

$$$$
>  <chemical-smiles>
O=C1NCc2ccc3c(-c4cccc(Cl)c4)c[nH]c3c21

>  <category-label>
True

$$$$
>  <chemical-smiles>
Cc1ccc(CNc2c3ccccc3nc3ccccc23)cc1

>  <category-label>
False

$$$$
>  <chemical-smiles>
COc1nc(N(C)O)nc(N(C)O)n1

>  <category-label>
False

$$$$
>  <chemical-smiles>
COc1ccc2c(c1)[nH]c(=O)c1c3cc(C)c(C)cc3cn21

>  <category-label>
True

$$$$
